Consider the following molecules; for each one, report its TGI.
System: IGROV1 ovarian
Assay: NCI tumour cell line growth inhibition, 48 h
Write it as a number; the unit µM goes unstated.

Field TGI (system: IGROV1 ovarian) for entry COc1cc2c(cc1Nc1nc(Nc3ccsc3C(N)=O)c3cc[nH]c3n1)N(C(=O)CN(C)C)CCC2 = 8.36

Field TGI (system: IGROV1 ovarian) for entry C[N+]12C=CC=C1C(N1CCCC1)c1sc(-c3ccc(Cl)cc3)cc12 (stereo not given) = 39

Field TGI (system: IGROV1 ovarian) for entry COc1ccc(N=Nc2ccc3oc(=O)c(C(=O)Nc4ccc(OC)cc4)cc3c2)cc1 = 44

Field TGI (system: IGROV1 ovarian) for entry CCC1(CC)C(=O)N(C(=O)c2ccc(Cl)cc2)N(C(=O)c2ccccc2Cl)C1=O = 16.3

Field TGI (system: IGROV1 ovarian) for entry Cc1c2cccc-2c(N(C)C)cc2c1[nH]c1ccccc12 = 4.9

====

System: SW-620 colon
Test: NCI tumour cell line growth inhibition, 48 h
Consider the following molecules; for each one, report its TGI.

# molecule COc1ccc(/C=C2\CN(Cc3cn(CCCNc4ccnc5cc(Cl)ccc45)nn3)C/C(=C\c3ccc(OC)cc3)C2=O)cc1 ; its TGI = 3.57 µM

# molecule C/C=C\C(C)=C/C(C)C(=O)CC(O)CC1CC(=O)NC(=O)C1 (stereo unspecified) ; its TGI = > 100 µM

# molecule O=S(O)CCCSSCCCCSSCCCS(=O)O ; its TGI = > 100 µM

# molecule CC(C)NC(=O)OCc1c(COC(=O)NC(C)C)c(-c2ccc[n+](COC(=O)C3CCCCC3)c2)n2c1CCC2 ; its TGI = > 100 µM

# molecule Cc1ccc(SCN2CCCCC2)cc1 (tested in a mixture with another compound) ; its TGI = 56.5 µM

# molecule COc1ccccc1C1C(Cl)C(=O)N1NC(=O)Cc1ccccc1 (stereo unspecified) ; its TGI = > 100 µM

# molecule CC(C)(C)OC(=O)NCCNC(=O)OCc1ccccc1 ; its TGI = > 100 µM

# molecule C[Si](C)(C)C1=C2C(=O)c3ccccc3C(=O)C2=C([Si](C)(C)C)[C@@H]2CCCC[C@H]12 ; its TGI = > 100 µM

# molecule COc1ccc(/C=C(\NC(=O)c2ccccc2)c2nc3ccccc3[nH]2)cc1 ; its TGI = > 100 µM

# molecule N#CC1=C(N)Oc2c(ccc3ccccc23)C1c1ccccc1Cl (stereo unspecified) ; its TGI = 14.7 µM

# molecule CCCCCCCCCCCCOC1C(C(COC2OC(C(O)CO)C3OC(C)(C)OC23)OC(=O)Nc2ccc([N+](=O)[O-])cc2)OC2OC(C)(C)OC21 (stereo unspecified) ; its TGI = 3.33 µM

====

System: MCF7 breast
Test: NCI tumour cell line growth inhibition, 48 h
reported_property: TGI (µM)
Write it as a number; the unit µM goes unstated.

# compound COc1ccc(/C=C2\CC(C)CC3C2=NN(C(C)=O)C3c2ccc(OC)c(OC)c2)cc1OC (stereo unspecified) ; its TGI = 30.6

# compound Cc1cccc(NC(=O)c2sc3nc4c(cc3c2N)CCC4)c1C ; its TGI = 13.6

# compound COc1cc(C2C3=C(COC3=O)N(CCO)c3cc4c(cc32)CCC4)cc(OC)c1OC (stereo unspecified) ; its TGI = 23.8

# compound O=C1/C(=C/c2ccc([N+](=O)[O-])s2)Oc2ccc(Cl)cc21 ; its TGI = 1.43

# compound Cn1c([N+](=O)[O-])cnc1/C=C1\Oc2ccc(Cl)cc2C1=O ; its TGI = 4.42

# compound Cn1cnc2nc(Cl)nc(Cl)c21 ; its TGI = 13.2

# compound Cn1cc(C2=C(c3cn(CCCSC(=N)N)c4ccccc34)C(=O)NC2=O)c2ccccc21 ; its TGI = 3

# compound Nc1cc2[nH]c(=O)c3cc(Cl)ccc3c2cc1Cl ; its TGI = 13.8

# compound CCCCCCn1c(=N)n(CC(O)COc2cccc(C)c2)c2ccccc21 (stereo unspecified) ; its TGI = 3.55

# compound CN(C)CCCNc1ccc2nnn3c4ccc([N+](=O)[O-])cc4c(=O)c1c23 ; its TGI = 8.08

Where do the numbers come from? From PubChem BioAssay (NCI).
